test system: Amaranthus retroflexus; assay: Herbicidal activity against Amaranthus retroflexus assessed as inhibition of fresh plant weight at 750 g/ha using preemergence protocol measured after 24 days under green house conditions; conditions: pre-emergence
Response key: satisfied means inhibition at 750 g/ha >= 3%; not satisfied means inhibition at 750 g/ha < 3%.

Query: Identify whether the reported inhibition at 750 g/ha of the following compound is 3% or greater: "Cc1cc(-c2cccc(C(F)(F)F)c2)c(Nc2ccc(OC(F)(F)F)cc2)nn1"
Reply: satisfied

Query: Lookup "Cc1cc(-c2cccc(C(F)(F)F)c2)c(Nc2cccc(Br)c2)nn1"
Reply: not satisfied

Query: Lookup "Cc1ccc(Nc2nnc(C)cc2-c2cccc(C(F)(F)F)c2)cc1"
Reply: satisfied

Query: Lookup "Cc1cc(-c2cccc(C(F)(F)F)c2)c(NCc2ccccc2)nn1"
Reply: satisfied
